# STUDY_SYSTEM: Recombinant human LTC4 synthase (Homo sapiens)
# Construct: made in house; host or cells: Pichia pastoris
# Sequence (Q16873 whole entry): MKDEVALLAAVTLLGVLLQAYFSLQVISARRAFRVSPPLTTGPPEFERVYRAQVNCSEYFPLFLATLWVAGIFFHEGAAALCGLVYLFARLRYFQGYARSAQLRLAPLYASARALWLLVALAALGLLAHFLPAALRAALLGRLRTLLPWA
# EXPERIMENT: LTC4 synthase in vitro assay (HTRF detection of LTC4)
# Format: biochemical
# CONDITION_LABEL: total concentration of title compound in the assay 10 μM; HTRF method
Listing of entries alongside the reported inhibition at 10 µM.
Write the number in % without appending the unit.

[
  {
    "COMPOUND_STRING": "O=C(O)c1cc(Nc2ccc(F)c(F)c2)cc(Oc2ccc(NC(=O)c3cccc(Cl)c3)cc2)c1",
    "READOUT_TYPE": "inhibition at 10 µM",
    "REPORTED_RESULT": 100
  },
  {
    "COMPOUND_STRING": "Cc1c(Cl)cccc1S(=O)(=O)Nc1ccc(Oc2ccc(Nc3ccc(F)c(F)c3)c(C(=O)O)c2)cn1",
    "READOUT_TYPE": "inhibition at 10 µM",
    "REPORTED_RESULT": 99
  },
  {
    "COMPOUND_STRING": "CC(C)Oc1ccc(C(=O)Nc2ccc(Oc3ccc(NC(=O)c4cc(Cl)ccc4O)c(CC(=O)O)c3)cc2C(=O)O)cc1",
    "READOUT_TYPE": "inhibition at 10 µM",
    "REPORTED_RESULT": 100
  }
]

-- ask Given the compound "O=C(O)c1cc(Sc2ccc(Nc3ccc(F)c(F)c3)cc2)ccc1Nc1ccc(F)c(F)c1" , write its reported inhibition at 10 µM.
-- reply 99
